src = paper PMC4873341

- ASSAY: Plasma pharmacokinetic study, single oral dose
- Type: in vivo, Balb-c mice
- RUN CONDITIONS: Balb-c, mouse, plasma, po, 60 mg/kg
EXPERIMENTAL ENDPOINT: Cmax (ng/mL)
Numbers only here, please. The scale is ng/mL.

Recorded Cmax (compound CC[C@@H]([C@H](C)O)n1ncn(-c2ccc(N3CCN(c4ccc(OC[C@@H]5CO[C@@](Cn6cncn6)(c6ccc(F)cc6F)C5)cc4)CC3)cc2)c1=O ): 15900

----------
- Test system: Hh pathway (SMO)
- ASSAY: SHH-Light2 reporter assay stimulated with 20
- Format: cell-based
- RUN CONDITIONS: Shh Light2, read-out: IC50 of pathway activation by 20(S)-hydroxycholesterol
EXPERIMENTAL ENDPOINT: pIC50
Entry type: numeric. Quantity: pIC50, the -log10 of concentration in molar units.

Recorded pIC50 (compound CC[C@@H]([C@H](C)O)n1ncn(-c2ccc(N3CCN(c4ccc(OC[C@@H]5CO[C@@](Cn6cncn6)(c6ccc(F)cc6F)C5)cc4)CC3)cc2)c1=O [posaconazole] ): 6.79
